Property: inhibition at 10 µM; scope: individual molecules
- tgt: CDK2/Cyclin E1 (Homo sapiens, UniProt P24941)
- test.description: NanoBRET live-cell target engagement, CDK2-NanoLuc/Cyclin E1 in HEK-293
- Format: binding
- condition.context: CDK2/E1; average; read-out: Inhibition at 10µM (%)
Please state the figure in %; there is no need to write the unit.

Guide cases for inhibition at 10 µM, answers given:
CN1CCN(c2ccc(Nc3ncc4cc(C#N)c(=O)n(C5CCCC5)c4n3)cc2)CC1 :: 12.6
COc1ccccc1-c1cc(Nc2cccc(CS(N)(=O)=O)c2)ncn1 :: 18.7
CC(C)N1CCN(c2ccc(Nc3ncc4cc5n(c4n3)C3(CCCCC3)CNC5=O)nc2)CC1 :: -5.8
COC1CN(C(=O)c2ccc3c(N)ncc(-c4ccc(-c5cnn(C)c5)cc4)c3n2)C1 :: -18.6

Problem: For the molecule shown here, COc1ccc(F)cc1-c1cc(NC(=O)C2CCCNC2)ncc1Cl (centres unmarked) , give the reported inhibition at 10 µM.
Solution: 65.6

Problem: For the molecule shown here, CN1CC[C@H](c2c(O)cc(O)c3c(=O)cc(-c4ccccc4Cl)oc23)[C@H](O)C1 , give the reported inhibition at 10 µM.
Solution: 75

Problem: For the molecule shown here, Cn1cc(-c2ccc(-c3cncc(Cl)c3N3CCC4(CCNC4=O)CC3)cc2)cn1 , give the reported inhibition at 10 µM.
Solution: -6.3

Problem: For the molecule shown here, CNC(=O)c1nn(C)c2c1C(C)(C)Cc1cnc(Nc3ccc(N4CCN(C)CC4)cc3)nc1-2 , give the reported inhibition at 10 µM.
Solution: 76.6
